target-or-system: HIV-1 Env of ZM197.7 (HIV-1)
test-description: cell-based or functional assay
experimental-readout: neutralization IC50 (µg/mL)
A number alone suffices; assume µg/mL.

Looking up CAP256-VRC26.03 (antibody, V domains shown) VH: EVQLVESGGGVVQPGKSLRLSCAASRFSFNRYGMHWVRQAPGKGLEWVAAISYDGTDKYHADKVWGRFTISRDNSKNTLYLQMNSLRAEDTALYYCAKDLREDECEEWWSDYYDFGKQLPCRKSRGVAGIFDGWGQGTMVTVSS VL: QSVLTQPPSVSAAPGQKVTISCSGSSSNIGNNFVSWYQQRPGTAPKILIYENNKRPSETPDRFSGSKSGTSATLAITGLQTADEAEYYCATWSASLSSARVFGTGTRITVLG , I see its neutralization IC50 listed as 0.16
